Tested on: EKVX
Assay: NCI tumour cell line growth inhibition, 48 h
Calls of active or inactive are those of the source. Rule as the data show it: active = GI50 up to about 1.1 µM and inactive = higher.
Would you mind telling me the reported GI50 of each entry?

CC(C)(C)NC(=O)[C@H]1CC[C@H]2[C@@H]3CC=C4NC(=O)CC[C@]4(C)[C@H]3CC[C@]12C    > 100 µM (inactive)
COc1ccc(C2Oc3cc(OC)c(O)cc3[C@@H]2C)cc1 (stereo not given in full)    56.4 µM (inactive)

Quick request: GI50 for each listed item, please.
1. c1ccc(/C(=N\Nc2nc3ccccc3[nH]2)c2ccccn2)cc1
2. COC(=O)C(Cc1nc2ccccc2nc1O)C(=O)C(=O)Nc1ccc(F)cc1 (stereo not given)
3. CC(C)[Si](Oc1cc2c3c(ccc2c(O)c1[C@@H](C)CO[Si](C)(C)C(C)(C)C)C(C)(C)CCC3)(C(C)C)C(C)C
4. COC(=O)c1ccc(C)cc1C1CN=NC12Cc1c(C)cccc1C2=O (stereo not given)
5. O=S(=O)(NNc1ccccc1)c1ccccc1
6. O=c1n(-c2ccccc2)c(=O)n2n1C1C=CC2CCCCCC1
7. COC(=O)c1ccccc1CC1Cc2cc3c(cc2C1=O)CCC3 (stereo not given)
8. c1ccc2c(c1)C1=NCCN1c1ccccc1-2

RESULT:
1. 0.47 µM (active)
2. > 100 µM (inactive)
3. > 100 µM (inactive)
4. > 100 µM (inactive)
5. 14.4 µM (inactive)
6. > 100 µM (inactive)
7. 25.8 µM (inactive)
8. 4.54 µM (inactive)
